Biological target: T1, human IL-18BP (interleukin-18 binding protein, isoform A) (human, UniProt O95998 31-194)
T1 construct: cell assays used Sino Biological 10357-H08H; PBMC assay 1 relies on endogenous IL-18BP; UniProt number is printed as 095998; also called hIL-18BP
T1 sequence: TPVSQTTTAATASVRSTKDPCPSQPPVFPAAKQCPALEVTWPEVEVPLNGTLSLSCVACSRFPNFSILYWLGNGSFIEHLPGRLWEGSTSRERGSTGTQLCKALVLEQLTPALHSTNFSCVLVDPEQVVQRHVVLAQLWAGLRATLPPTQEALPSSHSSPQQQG
Test: BLI (Octet), mAb on AHC biosensor
pKd: −log10 of the molar value.

>  <binder>
SA312a (antibody, human IgG1, V domains shown, humanized; human IgG1 (suffix a), kappa) VH: QVQLQESGPGLVKPSQTLSLTCTVSGYSITQDYNAHWIRQPPGKGLEWIGYIHYSGSTMYNPSLKSRVTISRDTSKNQFSLKLSSVTAADTAVYYCARNYGSIYVNYFDYWGQGTLVTVSS VL: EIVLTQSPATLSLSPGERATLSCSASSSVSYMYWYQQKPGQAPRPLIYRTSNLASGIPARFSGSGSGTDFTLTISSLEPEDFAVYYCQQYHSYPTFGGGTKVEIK

>  <pKd>
9.93

$$$$
>  <binder>
SA337a (antibody, human IgG1, V domains shown, humanized; human IgG1 (suffix a), kappa) VH: QVQLQESGPGLVKPSQTLSLTCTVSGYSITQDYNAHWIRQPPGKGLEWIGYIHYSGQTNYNPSLKSRVTISRDTSKNQFSLKLSSVTAADTAVYYCARNYGSIYVNYFDYWGQGTLVTVSS VL: EIVLTQSPATLSLSPGERATLSCSASSSVSYMYWYQQKPGQAPRPLIYRTSNLASGIPARFSGSGSGTDFTLTISSLEPEDFAVYYCQLYHSYPTFGGGTKVEIK

>  <pKd>
10.33

$$$$
>  <binder>
SA317a (antibody, human IgG1, V domains shown, humanized; human IgG1 (suffix a), kappa) VH: QVQLQESGPGLVKPSQTLSLTCTVSGYSITSDYNAHWIRQPPGKGLEWIGYIHYSGSTLYNPSLKSRVTISRDTSKNQFSLKLSSVTAADTAVYYCARNYGSIYVNYFDYWGQGTLVTVSS VL: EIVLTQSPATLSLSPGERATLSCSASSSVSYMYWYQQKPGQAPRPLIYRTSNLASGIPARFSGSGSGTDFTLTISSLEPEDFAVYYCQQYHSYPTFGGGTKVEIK

>  <pKd>
9.48

$$$$
